Below: a set of entries, each annotated with reported hERG current change (%, negative = inhibition) at 1uM.
- systemUnderTest: human ether-à-go-go-related gene (hERG) potassium channel (human, UniProt Q12809)
- Sequence (Q12809 whole entry, looked up): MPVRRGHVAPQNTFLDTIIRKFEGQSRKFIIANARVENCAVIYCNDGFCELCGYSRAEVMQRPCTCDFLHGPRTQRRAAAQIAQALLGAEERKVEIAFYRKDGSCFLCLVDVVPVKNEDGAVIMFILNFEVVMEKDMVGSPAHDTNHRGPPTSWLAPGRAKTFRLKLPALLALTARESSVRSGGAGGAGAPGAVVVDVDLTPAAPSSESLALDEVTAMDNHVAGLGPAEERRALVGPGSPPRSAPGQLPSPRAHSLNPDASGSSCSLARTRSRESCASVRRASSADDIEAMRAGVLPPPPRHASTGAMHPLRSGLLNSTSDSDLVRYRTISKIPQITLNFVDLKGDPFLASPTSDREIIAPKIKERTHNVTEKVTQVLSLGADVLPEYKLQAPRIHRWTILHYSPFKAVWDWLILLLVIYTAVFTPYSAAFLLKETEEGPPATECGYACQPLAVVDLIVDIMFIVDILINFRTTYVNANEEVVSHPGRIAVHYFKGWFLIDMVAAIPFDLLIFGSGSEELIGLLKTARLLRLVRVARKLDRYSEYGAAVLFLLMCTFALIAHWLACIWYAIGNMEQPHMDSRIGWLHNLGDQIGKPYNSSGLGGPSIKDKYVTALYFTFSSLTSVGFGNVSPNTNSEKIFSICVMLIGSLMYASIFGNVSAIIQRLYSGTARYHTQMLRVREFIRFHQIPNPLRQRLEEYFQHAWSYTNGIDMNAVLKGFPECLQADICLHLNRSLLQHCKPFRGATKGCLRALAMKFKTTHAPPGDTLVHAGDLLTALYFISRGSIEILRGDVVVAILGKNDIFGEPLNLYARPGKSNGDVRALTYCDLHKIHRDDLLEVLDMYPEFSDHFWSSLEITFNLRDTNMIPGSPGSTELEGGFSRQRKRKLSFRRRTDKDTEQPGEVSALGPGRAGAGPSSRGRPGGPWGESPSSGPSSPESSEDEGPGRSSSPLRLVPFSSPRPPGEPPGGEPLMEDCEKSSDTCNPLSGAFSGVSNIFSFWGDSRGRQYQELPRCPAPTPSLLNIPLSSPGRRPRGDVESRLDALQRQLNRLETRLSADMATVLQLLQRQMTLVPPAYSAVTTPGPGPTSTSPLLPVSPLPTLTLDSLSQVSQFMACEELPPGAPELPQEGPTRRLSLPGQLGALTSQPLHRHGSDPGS
- measurementProtocol: primary screen, population patch clamp on CHO cells stably expressing hERG; higher = less effect of the substance
Among all 310,000 compounds or so, about 2,200 (0.71%) showed an effect of 50% or more. Effects have a minus sign here. This is one part of a sample in which strong results are shown more often than they occur.
quantity: hERG current change (%, negative = inhibition) at 1uM (%)

compound	unitSpec	observedValue
O=[N+]([O-])c1cccc(Cl)c1CSc1ccccn1	%	11
COc1cccc(CC2(CO)CCN(Cc3cccn3-c3cccnc3)CC2)c1	%	-6.04
Cc1[nH]nc2ncc(C(=O)c3cc(Cl)cc(Cl)c3O)cc12	%	10.1
CC(=O)Nc1cccc(OCc2c(F)cccc2Cl)c1	%	4.98
COc1ccccc1NC(=S)NC(NC(=O)c1ccco1)C(Cl)(Cl)Cl (stereo not drawn)	%	4.44
COc1cc(NC(=O)c2ccccc2F)c(OC)cc1NC(=O)CN1CCCCC1.Cl	%	1.58
Cn1c(N)c(C(=O)COC(=O)c2ccccc2NCc2ccco2)c(=O)n(C)c1=O	%	9.3
Cc1onc(-c2c(Cl)cccc2Cl)c1C(=O)O/N=C(\C#N)c1ccccc1	%	7.14
OCC1(Cc2cccc(F)c2)CCN(Cc2cccc3nccnc23)CC1	%	-19.8
COc1ccc(CC2(CO)CCN(Cc3cccnc3)CC2)cc1	%	1.4
CNc1c([N+](=O)[O-])cnn1-c1ccccc1Cl	%	-13.4
O=C(Cn1ncc2c1-c1ccccc1OC2)N1CCN(Cc2ccc3c(c2)OCO3)CC1	%	-31
Cc1ccc2c(c1)CCCN2C(=O)c1ccncc1	%	8.11
COc1ccc(OC)c(-n2c(CN3CCC(C(N)=O)CC3)nc3ccccc3c2=O)c1	%	7.22
Cc1[nH]ccc(=O)c1OCc1c(F)cccc1Cl	%	12.8

###

- systemUnderTest: human ether-à-go-go-related gene (hERG) potassium channel (human)
- measurementProtocol: primary screen, population patch clamp on CHO cells stably expressing hERG; higher = less effect of the substance
Out of some 310,000 compounds screened, about 2,200 (0.71%) showed an effect of 50% or more. The effect is printed as a negative number. What follows is part of a selection rich in strong results, with near analogues and random picks from the rest.
Below: a set of entries, each annotated with reported hERG current change (%, negative = inhibition) at 1uM.
quantity: hERG current change (%, negative = inhibition) at 1uM (%)

compound	observedValue
CCCN1CCC(=O)N([C@H](CSc2ccc(Br)cc2)c2ccccc2)CC1	-17.5
COc1ccc(C2CC(=O)C=C(NCc3ccc4c(c3)OCO4)C2)cc1 (centres unmarked)	-32.6
O=C1CCN(CCc2ccccc2)CCN1[C@H](CSc1ccccc1)c1ccccc1	-72.2
CN(C)CCCNC1=CC(=O)CC(c2ccccc2)C1 (centres unmarked)	-1.56
CCc1ccc(NC2=CC(=O)CC(c3ccco3)C2)cc1 (centres unmarked)	12.9
CCCCCCCNC1=CC(=O)CC(c2ccco2)C1 (centres unmarked)	-77.6
Cc1ccc(CN2C3CCCC2CC(NC(=O)Nc2cccc(F)c2)C3)cc1 (centres unmarked)	-85.2
O=C1C=C(NCc2ccc3c(c2)OCO3)CC(c2ccccc2)C1 (centres unmarked)	-81.9
O=C(/C=C/c1ccccc1)NC1CC2CCCC(C1)N2Cc1ccccc1 (centres unmarked)	-46.4
Cc1ccc(SC[C@H](c2ccccc2)N2CCN(CCc3ccccc3)CCC2=O)cc1	-10.2
CCC(=O)NC1CC2CCCC(C1)N2Cc1ccc(C)cc1 (centres unmarked)	-11.9
Cn1c(SCc2ccc3c(c2)OCO3)nnc1-c1ccccc1	10.4
CCCCCCCNC1=CC(=O)CC(c2ccccc2)C1 (centres unmarked)	-63.2
O=C(Nc1cccc(F)c1)NC1CC2CCCC(C1)N2C1CC1 (centres unmarked)	4.85

###

Below: a set of entries, each annotated with reported hERG current change (%, negative = inhibition) at 1uM.
- systemUnderTest: human ether-à-go-go-related gene (hERG) potassium channel (human, UniProt Q12809)
- measurementProtocol: primary screen, population patch clamp on CHO cells stably expressing hERG; higher = less effect of the substance
- From the text: Briefly, Chinese hamster ovary (CHO) cells stably expressing the hERG channel were dislodged from tissue culture flasks and dispensed into PPC plates. […] Small molecule effects on hERG current density were quantified by […].
Among all 310,000 compounds or so, about 2,200 (0.71%) showed an effect of 50% or more. The effect is printed as a negative number. The sample as a whole holds a higher share of strong results than the screen did.
quantity: hERG current change (%, negative = inhibition) at 1uM (%)

compound	observedValue
CCN(CC)S(=O)(=O)c1ccc(Cl)c(NC(=O)CSc2nnc(-c3cccs3)o2)c1	5.51
Nc1ccc(O)cc1	10.2
CCCCNC(=O)C1CCCN1C(=O)Nc1ccccc1 (centres unmarked)	0.208
Cl.Clc1ccc(CN2C3=NCCCN3c3ccccc32)cc1Cl	-51.4
O=C(CO/N=C/c1ccc(OC(F)F)cc1)NCc1ccc(F)cc1	-52
O=C(CSc1ccccc1)Nc1nnc(COc2ccc(Cl)cc2)s1	3.34
Fc1cccc(CN2CCN(Cc3nc(CCc4ccccc4)no3)CC2)c1	3.49
Cl.Clc1cccc(CN2C3=NCCCN3c3ccccc32)c1	-46.2
COc1ccc(Nc2nc(N)nc(CN3CCN(c4ccccn4)CC3)n2)cc1	-37.1
O=C(NC1CCCCCC1)c1cc(=O)[nH]c2ccc(S(=O)(=O)N3CCOCC3)cc12	1.03
Cc1ccc(-c2nnc3n2CCCCC3)cc1	0.609
O=C1NC(=Nc2cccc([N+](=O)[O-])c2)SC1(CO)CO	2.12
COc1cc(SC#N)ccc1N=Cc1c(C)[nH]n(-c2cccc3ccccc23)c1=O	13.4
COC(CNC(=O)c1ccc2c(c1)ncn2-c1ccc(F)c(F)c1)OC	-5.49
O=C(NCCN1CCOCC1)c1cc([N+](=O)[O-])cc([N+](=O)[O-])c1	12.5
COc1ccc(/C=N/Nc2ccccc2C(=O)O)cc1Cn1cc([N+](=O)[O-])cn1	6.26
COc1ccc(Nc2nc(N)nc(CN3CCC(Cc4ccccc4)CC3)n2)cc1	-81
Br.CC(C)(C)C(=O)CN1C2=NCCCN2c2ccccc21	-46.9
CC(=O)c1cccc(Nc2cc(C)nc3c(C)cccc23)c1.Cl	-16.9
COC(=O)c1ccc(/C=N/OCC(=O)NCc2ccc(F)cc2)cc1	3.32

###

Below: a set of entries, each annotated with reported hERG current change (%, negative = inhibition) at 1uM.
- systemUnderTest: human ether-à-go-go-related gene (hERG) potassium channel (human)
- measurementProtocol: primary screen, population patch clamp on CHO cells stably expressing hERG; higher = less effect of the substance
The campaign covered roughly 310,000 compounds. About 2,200 (0.71%) showed an effect of 50% or more. The effect is printed as a negative number. For the sample, strong results were picked, then their nearest neighbours and some compounds at random.
quantity: hERG current change (%, negative = inhibition) at 1uM (%)

compound	systemUnderTest	observedValue
Cc1ccc(NC(=O)CCN2CCN(C/C=C/c3ccccc3)CC2)cc1C.Cl	human ether-à-go-go-related gene (hERG) potassium channel (human)	-53.2
Cc1ccc(-c2csc(N(CCCN3CCOCC3)C(=O)c3ccco3)n2)cc1.Cl	human ether-à-go-go-related gene (hERG) potassium channel (human)	-4.11
CC(=O)NC(=S)NNC(=O)C(c1ccccc1)c1ccccc1	human ether-à-go-go-related gene (hERG) potassium channel (human)	15
CN(C)c1ccc(CN(C(=O)/C=C/c2ccco2)C2CCS(=O)(=O)C2)cc1 (stereo not drawn)	human ether-à-go-go-related gene (hERG) potassium channel (human)	11.7
CSC1=NP(=S)(SC)N2CCCC2=C1C#N (stereo not drawn)	human ether-à-go-go-related gene (hERG) potassium channel (human)	6.13
CCN(CC)CCCN(C(=O)c1ccco1)c1nc(-c2ccc(C)cc2)cs1.Cl	human ether-à-go-go-related gene (hERG) potassium channel (human)	-90.2
O=C(COC(=O)Cc1cccc(C(F)(F)F)c1)NC1CC1	human ether-à-go-go-related gene (hERG) potassium channel (human)	10.7
CCOC(=O)C1CCCN(Cc2nc(N)nc(Nc3ccccc3)n2)C1 (stereo not drawn)	human ether-à-go-go-related gene (hERG) potassium channel (human)	-18.6
CCOC(=O)C1CCCN(Cc2nc(N)nc(Nc3ccc(Cl)cc3)n2)C1 (stereo not drawn)	human ether-à-go-go-related gene (hERG) potassium channel (human)	-71.6
Cc1cccc(NC(=O)CCN2CCN(C)CC2)c1.Cl	human ether-à-go-go-related gene (hERG) potassium channel (human)	14.1
CCn1c(CC(=O)Nc2ccccc2)nnc1SCC(=O)NC1CCCC1	human ether-à-go-go-related gene (hERG) potassium channel (human)	5.86
COc1ccc(-n2c(SCC(=O)N/N=C/c3ccccc3OCC(=O)O)nc3ccccc3c2=O)cc1	human ether-à-go-go-related gene (hERG) potassium channel (human)	11.6
Cc1cc(NC(=O)CCN2CCN(Cc3ccccc3)CC2)ccc1Br.Cl	human ether-à-go-go-related gene (hERG) potassium channel (human)	7.35
CCC(C)Sc1nc2c(c(=O)[nH]c(=O)n2C)n1Cc1ccc(Cl)cc1 (stereo not drawn)	human ether-à-go-go-related gene (hERG) potassium channel (human)	2.15
CCOC(=O)C1CCCN(Cc2nc(N)nc(Nc3ccc(C)cc3)n2)C1 (stereo not drawn)	human ether-à-go-go-related gene (hERG) potassium channel (human)	-47.6
